Measured values drawn from ChEMBL document CHEMBL3045816 for this set.

Tested on: Streptococcus pyogenes
Assay: Antimicrobial activity against Streptococcus pyogenes MTCC 442 assessed as growth inhibition after 24 hr by turbidimetric method
Format: functional
Conditions: MTCC 442, 24 h
endpoint: MIC

Entry under review: `COc1ccc(C(=O)Nc2nc(C)c(C(=O)N/N=C3\S/C(=C\c4ccccc4OC)C(=O)N3c3ccccc3)s2)cc1` . Reported MIC? 100 µg/mL

Entry under review: `COc1ccc(C(=O)Nc2nc(C)c(C(=O)N/N=C3\S/C(=C\c4ccc(C)cc4)C(=O)N3c3ccccc3)s2)cc1` . Reported MIC? 50 µg/mL

Entry under review: `COc1ccc(C(=O)Nc2nc(C)c(C(=O)N/N=C3\S/C(=C\c4cccc(OC)c4)C(=O)N3c3ccccc3)s2)cc1` . Reported MIC? 250 µg/mL

Entry under review: `COc1ccc(C(=O)Nc2nc(C)c(C(=O)N/N=C3\S/C(=C\c4cccc(C)c4)C(=O)N3c3ccccc3)s2)cc1` . Reported MIC? 100 µg/mL

Entry under review: `O=C(O)c1cn(C2CC2)c2cc(N3CCNCC3)c(F)cc2c1=O` . Reported MIC? 50 µg/mL

Entry under review: `COc1ccc(C(=O)Nc2nc(C)c(C(=O)N/N=C3\S/C(=C\c4ccccc4)C(=O)N3c3ccccc3)s2)cc1` . Reported MIC? 250 µg/mL

Entry under review: `COc1ccc(C(=O)Nc2nc(C)c(C(=O)N/N=C3\SCC(=O)N3c3ccccc3)s2)cc1` . Reported MIC? 500 µg/mL

Entry under review: `COc1ccc(/C=C2\S/C(=N\NC(=O)c3sc(NC(=O)c4ccc(OC)cc4)nc3C)N(c3ccccc3)C2=O)cc1` . Reported MIC? 50 µg/mL
